measurement_kind: melting point (°C)

compound: O=C1Nc2ncc(/C=C/C(=O)N3CC4C=C(c5ccccc5)CC4C3)cc2CN2CCSCC12 (centres unmarked)
number: 214

A = O=C1COCc2cc(/C=C/C(=O)N3CC4C=C(c5nccs5)CC4C3)cnc2N1 (centres unmarked)
B = O=C1COCc2cc(/C=C/C(=O)N3CC4C=C(c5ccncc5)CC4C3)cnc2N1 (centres unmarked)
Sort A and B by melting point descending and give the first. Please identify the chosen entry by its label.
A

a = O=C(Nc1ccc(/C=C/C(=O)N2CC3C=C(c4ccccc4)CC3C2)cn1)c1ccccc1 (centres unmarked)
b = O=C(Nc1ccc(/C=C/C(=O)N2CC3C=C(c4ccncc4)CC3C2)cn1)c1cccnc1 (centres unmarked)
Name the one with the greater melting point value, either a or b as given. Please reply using the label of the selected record.
b
